// values below are reported IC50
Assayed system: Sodium-dependent serotonin transporter (Homo sapiens)
Sequence (P31645 whole entry): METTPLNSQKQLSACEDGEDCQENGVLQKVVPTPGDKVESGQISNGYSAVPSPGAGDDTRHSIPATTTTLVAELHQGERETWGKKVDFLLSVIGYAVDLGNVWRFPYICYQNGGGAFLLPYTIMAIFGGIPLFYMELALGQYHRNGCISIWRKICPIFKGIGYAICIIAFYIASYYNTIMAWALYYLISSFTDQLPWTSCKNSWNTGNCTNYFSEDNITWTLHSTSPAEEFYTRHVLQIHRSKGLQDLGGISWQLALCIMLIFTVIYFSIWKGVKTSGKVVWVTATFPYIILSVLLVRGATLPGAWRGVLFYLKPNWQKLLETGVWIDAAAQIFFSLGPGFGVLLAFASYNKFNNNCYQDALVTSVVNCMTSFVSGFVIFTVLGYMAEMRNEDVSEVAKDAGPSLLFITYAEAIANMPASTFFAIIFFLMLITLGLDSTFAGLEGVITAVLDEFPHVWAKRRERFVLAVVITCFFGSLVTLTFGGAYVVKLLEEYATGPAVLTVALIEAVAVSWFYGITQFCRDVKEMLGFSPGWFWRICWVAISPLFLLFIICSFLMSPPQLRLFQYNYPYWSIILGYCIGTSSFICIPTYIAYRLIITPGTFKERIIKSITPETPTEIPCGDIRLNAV
Assay protocol: Inhibition of human SERT expressed in CHOK1 cells incubated for 20 mins by [3H]-5-hydroxytryptamine uptake assay

Reported IC50 for CNC(=O)[C@@H]1CNCCO[C@H]1c1ccc(Cl)c(Cl)c1 : what is it?
> 1 µM

Reported IC50 for CC(=O)NC[C@@H]1CNCCO[C@H]1c1ccc(F)c(Cl)c1.O=C(O)/C=C/C(=O)O : what is it?
> 1 µM

Reported IC50 for CC(=O)NC[C@@H]1CNCCO[C@H]1c1ccc(Cl)c(F)c1.Cl : what is it?
> 1 µM
